System: 855422-203-R-J1-PDC complex spheroid viability
Assay Summary: Anticancer human tumor 855422-203-R-J1-PDC patient-derived bladder carcinoma cell line growth inhibition
Measurement Parameters: second compound 0.316 µM; first compound 0.316 µM; hits give low values
Parameter Measured: viability, T/C (%)
Kindly provide the numeric value in % only, without the unit symbol.

Previously resolved entries follow.
[[record]]
compound = "CC(C)c1c(-c2ccccc2)nc2c(C#N)c[nH]n2c1=O + NC1CC1c1ccc(-c2cccc(O)c2)cc1"
parameter_measured = "viability, T/C"
value = 99.7

[[record]]
compound = "COc1ccc([C@@H](O)c2cc(-c3ncnc4cc(N5CCOCC5)ccc34)c(F)cc2Cl)nn1 + NC1CC1c1ccc(-c2cccc(O)c2)cc1"
parameter_measured = "viability, T/C"
value = 90.4

[[record]]
compound = "CC1(C)CCC(CN2CCN(c3ccc(C(=O)NS(=O)(=O)c4ccc(NCC5CCOCC5)c([N+](=O)[O-])c4)c(Oc4cnc5[nH]ccc5c4)c3)CC2)=C(c2ccc(Cl)cc2)C1 + NC1CCC(NC2CC2c2ccccc2)CC1"
parameter_measured = "viability, T/C"
value = 88.5

[[record]]
compound = "CC(C)c1c(-c2ccccc2)nc2c(C#N)c[nH]n2c1=O + NC1CCC(NC2CC2c2ccccc2)CC1"
parameter_measured = "viability, T/C"
value = 93.4


Lab note: next compound to report on.
[Q] What does the data say about its viability, T/C? Entry: COc1ccc([C@@H](O)c2cc(-c3ncnc4cc(N5CCOCC5)ccc34)c(F)cc2Cl)nn1 + NC1CCC(NC2CC2c2ccccc2)CC1
[A] 73.4

###

Test system: 855422-203-R-J1-PDC complex spheroid viability
Assay Summary: Anticancer human tumor 855422-203-R-J1-PDC cell line growth inhibition;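 also: drug exposure lasted 7 days starting on day 3 after seeding; luminescence viability as percent of DMSO vehicle wells = 100%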
Measurement Parameters: second compound 0.1 µM; first compound 0.0316 µM; hits give low values
Bucketed by reported viability, T/C, buckets being lower = under 80%, middle = from 80% up to 90%, upper = 90% and over

Reference set (3 entries):
[[record]]
compound = "CC1COCCN1c1cc(-c2ccnn2C)c2ccnc(-c3ccn[nH]3)c2n1 (stereo unspecified) + NC1CCC(NC2CC2c2ccccc2)CC1"
measured_target = "855422-203-R-J1-PDC complex spheroid viability"
class_assignment = "middle"

[[record]]
compound = "Nc1ncn(C2CC(O)C(CO)O2)c(=O)n1 (stereo unspecified) + NC1CC1c1ccc(-c2cccc(O)c2)cc1"
measured_target = "855422-203-R-J1-PDC complex spheroid viability"
class_assignment = "upper"

[[record]]
compound = "COc1ccc([C@@H](O)c2cc(-c3ncnc4cc(N5CCOCC5)ccc34)c(F)cc2Cl)nn1 + NC1CCC(NC2CC2c2ccccc2)CC1"
measured_target = "855422-203-R-J1-PDC complex spheroid viability"
class_assignment = "middle"


[Q] Which of the defined bands does the recorded viability, T/C of O=C(C=Cn1cnc(-c2cc(C(F)(F)F)cc(C(F)(F)F)c2)n1)NNc1cnccn1 + NC1CC1c1ccc(-c2cccc(O)c2)cc1 sit within?
[A] lower

[Q] Please answer likewise for CC[C@@]1(O)C(=O)OCc2c1cc1n(c2=O)Cc2cc3c(CN(C)C)c(O)ccc3nc2-1 + NC1CCC(NC2CC2c2ccccc2)CC1
[A] lower

[Q] Please answer likewise for COc1cc(Nc2ncc3c(n2)-c2ccc(Cl)cc2C(c2c(F)cccc2OC)=NC3)ccc1C(=O)O + NC1CC1c1ccc(-c2cccc(O)c2)cc1
[A] middle

[Q] Please answer likewise for CC(C)CC(NC(=O)CNC(=O)c1cc(Cl)ccc1Cl)B1OC(=O)CC(CC(=O)O)(C(=O)O)O1 (stereo unspecified) + NC1CCC(NC2CC2c2ccccc2)CC1
[A] lower
